Provenance of the data: ChEMBL document CHEMBL1149349

# SYSTEM UNDER TEST: Prostaglandin E2 receptor EP1 subtype (Homo sapiens)
# Sequence (P34995 whole entry): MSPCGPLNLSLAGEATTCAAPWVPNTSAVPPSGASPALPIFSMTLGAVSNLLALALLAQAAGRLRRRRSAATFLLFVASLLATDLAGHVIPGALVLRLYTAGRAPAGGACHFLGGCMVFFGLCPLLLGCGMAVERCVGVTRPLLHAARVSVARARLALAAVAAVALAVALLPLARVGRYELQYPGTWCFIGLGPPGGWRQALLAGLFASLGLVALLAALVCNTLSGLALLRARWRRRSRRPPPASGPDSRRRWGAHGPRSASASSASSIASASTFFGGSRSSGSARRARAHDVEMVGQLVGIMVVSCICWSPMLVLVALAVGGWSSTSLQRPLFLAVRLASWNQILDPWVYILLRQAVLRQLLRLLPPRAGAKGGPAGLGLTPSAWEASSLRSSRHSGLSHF
# ASSAY NOTES: Displacement of [3H]PGE2 from EP1 receptor expressed in CHO-K1 cells
The recorded IC50 of each item maps onto one of these classes: low (below 10 nM), moderate (10 nM to below 300 nM), high (300 nM or more)

Each molecule maps to one class by IC50. Which class for Cc1cc(C(=O)O)nn1Cc1cc(Br)ccc1OCc1ccc(Cl)cc1 ?
low

Also O=C(O)c1nn(Cc2cc(Br)ccc2OCc2ccccc2)cc1CO , if possible.
high

Also Cc1cc(C(=O)O)nn1Cc1cc(Br)ccc1OCc1ccc(Cl)c(C(F)(F)F)c1 , if possible.
high

Also Cc1cc(C(=O)O)nn1Cc1cc(Br)ccc1OCc1ccc(C(F)(F)F)cc1 , if possible.
moderate

Also Cc1cc(C(=O)O)nn1Cc1cc(Br)ccc1OCc1ccc(F)cc1F , if possible.
low

Also Cc1cc(C(=O)O)nn1Cc1cc(Br)ccc1OCc1cc(C(F)(F)F)cc(C(F)(F)F)c1 , if possible.
high

Also Cc1cc(C(=O)O)nn1Cc1cc(Br)ccc1OCc1ccc(Cl)cc1Cl , if possible.
low

Also Cc1cccc(COc2ccc(Br)cc2Cn2nc(C(=O)O)cc2C)c1 , if possible.
moderate

Also Cc1cc(C(=O)O)nn1Cc1cc(Br)ccc1OCc1c(F)cccc1F , if possible.
moderate

Also Cc1cc(C(=O)O)nn1Cc1cc(Br)ccc1OCc1ccc(C(C)(C)C)cc1 , if possible.
high

Also O=C(O)c1nn(Cc2cc(Br)ccc2OCc2ccccc2)cc1F , if possible.
moderate

Also Cc1cn(Cc2cc(Br)ccc2OCc2ccccc2)nc1C(=O)O , if possible.
high

Also O=C(O)c1cc(-c2cccs2)n(Cc2cc(Br)ccc2OCc2ccccc2)n1 , if possible.
moderate

Also Cc1cc(C(=O)O)nn1Cc1cc(Br)ccc1OCc1ccccc1 , if possible.
low

Also O=C(O)c1nn(Cc2cc(Br)ccc2OCc2ccccc2)cc1Br , if possible.
high

Also Cc1cc(C(=O)O)nn1Cc1cc(Br)ccc1OCc1ccccc1Cl , if possible.
low

Also Cc1cc(C(=O)O)nn1Cc1cc(Br)ccc1OCc1cccc(Cl)c1 , if possible.
moderate

Also Cc1cc(C(=O)O)nn1Cc1cc(Br)ccc1OCc1cccc(Br)c1 , if possible.
moderate

Also O=C(O)c1nn(Cc2cc(Br)ccc2OCc2ccccc2)cc1C(F)(F)F , if possible.
high

Also O=C(O)c1cccc(-c2sccc2-c2cc(Cl)ccc2OCc2ccccc2)c1 , if possible.
low

Also Cc1cc(C(=O)O)nn1Cc1cc(Br)ccc1OCc1ccc(F)cc1 , if possible.
low
